# tgt: EcxR (Ehrlichia chaffeensis)
# Sequence: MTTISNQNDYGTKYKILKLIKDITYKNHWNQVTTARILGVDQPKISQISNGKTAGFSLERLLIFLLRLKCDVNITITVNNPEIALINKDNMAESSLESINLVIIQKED
# assayComment: EMSA
# statedConditions: EMSA: 10 mM Tris-HCl pH 7.5, 50 mM KCl, 5 mM MgCl2, 2.5% glycerol, 1 mM DTT, 50 ug/mL poly dI-dC, 20 fmol probe, room temperature 25 min (20 min in Fig …)

[
  {
    "sequenceChain": "TTGCTCAACCATAAAATAATGGGAAATTACCTTTTCTAGGAAGTTTCTCATTATTTAACAGTTAACTTTCTGTAAACTTCTAATAACAGTATTTTGTTCACTCTTCCCCTTAATAAAAATCATAAGTTTACAATAATGTCAAAAAGATTTCTTTTTAAACACATTTAAAATGGCTAAACC (double strand) [p28-Omp14-P1]",
    "tgt": "EcxR (Ehrlichia chaffeensis)",
    "binding": "binds"
  },
  {
    "sequenceChain": "GGTGTTTTTATAATTTTATTACTAAGATATTTTTTTATTAATAACTATATGCCAATACAGATAGTATAAGTATCTTATAATAAATCCATCATCTTAATGTAAGTAATACATATAACTAATAACAATAATATATTAACATTTTTATAGAATATCTATCATAATCAAACATTAACTAAATTCTCTACTAGCAGTAAATTGAATATCTACAATTTACACGTTCTACTGTTTTGCTTGCCAACTTAATTGATACTGCTTATCATCTGAATATCAAAAGATGATAGGGTACTGT (double strand) [clpB promoter EMSA probe]",
    "tgt": "EcxR (Ehrlichia chaffeensis)",
    "binding": "binds"
  }
]

All values here come from paper PMC9657007.
